Target: SARS-CoV-2 Main Protease (SARS-CoV-2) (UniProt P0DTD1)
Details: 20.0 µM
Each record here notes measured inhibition.
Use % as the unit, but write only the number.

// solved cases for inhibition follow
{"COMPOUND": "N#Cc1cc(Cl)cc(NC(=O)Nc2cccnc2)c1", "PROPERTY LABEL": "inhibition", "MEASURED": 23}
{"COMPOUND": "Cc1c(C(=O)NC(CC(=O)O)c2cccc(Cl)c2)cnc2ccccc12 (stereo not drawn)", "PROPERTY LABEL": "inhibition", "MEASURED": -13}

Please look at the following compound next.
**Q:** Give its inhibition value. Item: O=C(Nc1cccnc1)c1cc(Cl)ccc1O
**A:** 18.3

* * *

Each record here notes measured inhibition.
Molecular target: SARS-CoV-2 Main Protease (SARS-CoV-2)
Details: 50.0 µM
Give the figure together with its unit, number first.

{"COMPOUND": "CCCNC(=O)C(C)NC(=O)N(C)Cc1csc(C)n1 (configuration not stated)", "inhibition": "-2.74%"}
{"COMPOUND": "O=C(CCl)N1CCN(Cc2cccs2)CC1", "inhibition": "99%"}
{"COMPOUND": "CC(=O)N[C@@H](Cc1ccc(O)cc1)C(=O)NCc1ccc(Br)cc1 (stereo in doubt)", "inhibition": "-24.8%"}
{"COMPOUND": "CCC(=O)NCC[C@@H]1CCc2ccc3c(c21)CCO3 (stereo in doubt)", "inhibition": "6.69%"}
{"COMPOUND": "Cn1cc(NC(=O)N2CCN(C(=O)c3ccco3)CC2)c2ccccc2c1=O", "inhibition": "-2.88%"}
{"COMPOUND": "CCOC(=O)c1c(C)n(S(C)(=O)=O)c2ccc(N(C(=O)c3ccco3)S(C)(=O)=O)cc12", "inhibition": "98.6%"}
{"COMPOUND": "O=C(CCl)N1CCN(S(=O)(=O)c2cccs2)CC1", "inhibition": "99.6%"}
{"COMPOUND": "C=CC(=O)N(c1ccc2ncsc2c1)C(C(=O)NC(C)(C)C)c1cccnc1 (configuration not stated)", "inhibition": "0.772%"}
{"COMPOUND": "O=C(CCl)N1CCCc2cc(NCc3ccc(F)cc3Cl)ccc21", "inhibition": "52.5%"}
{"COMPOUND": "COCCc1ccc(Cl)cc1CN1CCN(C(=O)CCl)CC1", "inhibition": "95.1%"}

**Q:** Give its inhibition value. Item: CC(C)c1ncncc1NC(=O)C(C)c1cccc(Cl)c1 (configuration not stated)
**A:** 19%

**Q:** Give its inhibition value. Item: C=CC(=O)N(c1ccc(C(C)(C)C)cc1)C(C(=O)Nc1ccc(OC)cc1OC)c1cccnc1 (configuration not stated)
**A:** 41.6%

* * *

Each record here notes measured inhibition.
Biological target: SARS-CoV-2 Main Protease (SARS-CoV-2)
Settings: 20.0 µM
Use % as the unit, but write only the number.

// solved cases for inhibition follow
{"COMPOUND": "CCn1c(CSc2nc(C)c(C)n2CC2CCCO2)nc2cc(S(=O)(=O)N(C)C)ccc21 (stereo not drawn)", "UNITS TEXT": "%", "inhibition": -23.6}
{"COMPOUND": "Cc1ccnn1CC(=O)NCC(NC(=O)C(C)C#N)c1ccccc1 (stereo not drawn)", "UNITS TEXT": "%", "inhibition": -13.2}
{"COMPOUND": "CCn1c(=O)c(-c2cc[nH]n2)cc2c(C)nc(N)nc21", "UNITS TEXT": "%", "inhibition": -0.487}

**Q:** Give its inhibition value. Item: Cn1cnnc1NC(=O)Cc1cccc(Cl)c1
**A:** 5.99

**Q:** Give its inhibition value. Item: O=C(NCc1ccno1)c1ccccc1Oc1ccc(Cl)cc1Cl
**A:** -13

**Q:** Give its inhibition value. Item: CC(C)n1cnnc1CNC(=O)C1CCOc2ccccc21 (stereo not drawn)
**A:** -4.11

**Q:** Give its inhibition value. Item: CC(=O)Nc1ccc(NCC(=O)Nc2cnccc2C)cc1
**A:** -2.21

**Q:** Give its inhibition value. Item: N#Cc1ccc(CN2CCC(C3CCNC3)CC2)cc1 (stereo not drawn)
**A:** 97.1

**Q:** Give its inhibition value. Item: O=C(Cc1c[nH]c2ncccc12)NCc1ccc(Cl)cn1
**A:** 1.55

**Q:** Give its inhibition value. Item: O=C(Cc1cccc(Cl)c1)Nn1cnnc1
**A:** -9.88

**Q:** Give its inhibition value. Item: CC(C(=O)O)c1ccc2c(c1)[nH]c1ccc(Cl)cc12 (stereo not drawn)
**A:** -0.548

**Q:** Give its inhibition value. Item: O=C(CCl)N1CCN(S(=O)(=O)c2ccsc2)CC1
**A:** 78.6

**Q:** Give its inhibition value. Item: COC(=O)c1cc(Br)cc2c1NC(=O)C2=O
**A:** -5.73

**Q:** Give its inhibition value. Item: COc1ccc(OC)c(CCNC(=O)Nc2cn(CC(C)C)c(=O)c3ccccc23)c1
**A:** 1.12

**Q:** Give its inhibition value. Item: O=C(Cn1nnc2ccccc21)NCc1ccc(Oc2cccnc2)c(F)c1
**A:** -21.1
